The compounds listed here are annotated with their Ki.
# SYSTEM NAME: 5-hydroxytryptamine receptor 1B (Homo sapiens)
# Sequence (P28222 whole entry): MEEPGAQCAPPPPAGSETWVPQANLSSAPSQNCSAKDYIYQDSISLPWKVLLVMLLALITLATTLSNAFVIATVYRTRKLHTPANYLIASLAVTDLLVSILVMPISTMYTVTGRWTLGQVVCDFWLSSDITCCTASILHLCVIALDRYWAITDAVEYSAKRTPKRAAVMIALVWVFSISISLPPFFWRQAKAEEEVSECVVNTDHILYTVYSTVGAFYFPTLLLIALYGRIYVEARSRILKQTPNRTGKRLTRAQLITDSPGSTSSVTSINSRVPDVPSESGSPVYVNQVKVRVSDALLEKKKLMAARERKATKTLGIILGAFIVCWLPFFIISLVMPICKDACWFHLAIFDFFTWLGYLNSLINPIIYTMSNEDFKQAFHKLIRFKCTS

// worked examples, Ki included
OCC1CCCN(CCCC2CCCc3ccc(OCc4noc(-c5ccc(Cl)cc5)n4)cc32)C1 (stereo in doubt; 8) = > 1000 nM
CN1CCN(c2cccc3ccc(OCc4noc(-c5ccc(Cl)cc5)n4)cc23)CC1 = < 1 nM

Form entry - test system: 5-hydroxytryptamine receptor 1B (Homo sapiens); read-out: Ki; compound: OCC1(NCCCC2CCc3ccc(OCc4noc(-c5ccc(Cl)cc5)n4)cc32)CCCC1 (stereo not drawn)
> 300 nM

* * *

# METHOD DESCRIPTION: Metabolic stability in human liver microsomes assessed as half life
# Format: ADME, Microsome
MEASURE NAME: half-life (min)

// solved cases for half-life follow
OCC1CCCN(CCCC2CCCc3ccc(OCc4noc(-c5ccccc5F)n4)cc32)C1 (stereo not given) = 17
OCC1(N2CCN(C3CCc4ccc(OCc5noc(-c6ccccc6F)n5)cc43)CC2)CCCC1 (stereo not given) = 14
OCC1CCCN(CCCC2CCCc3ccc(OCc4noc(-c5ccc(Cl)cc5)n4)cc32)C1 (stereo in doubt; 8) = 22
Fc1ccccc1-c1nc(COc2ccc3c(c2)C(N2CCN(C4CCCC4)CC2)CC3)no1 (stereo not given) = 12
CN1CCN(c2cccc3ccc(OCc4noc(-c5ccc(Cl)cc5)n4)cc23)CC1 = 22

[I] CC(C)N1CCN(C2CCc3ccc(OCc4noc(-c5ccc(Cl)cc5)n4)cc32)CC1 (stereo not given)
[II] OCC1CCCN(CCCC2CCCc3ccc(OCc4ccc(-c5ccccc5F)cn4)cc32)C1 (stereo not given)
[III] CC1CC(N2CCN(C3CCc4ccc(OCc5noc(-c6ccc(Cl)cc6)n5)cc43)CC2)CC1C (stereo not given)
Your job: order these 3 records by half-life, ascending. Put the labels in the requested order and write them down.
III, I, II

[a] CCN(Cc1cccc(OCc2noc(-c3ccccc3F)n2)c1)C1CCN(C2CC(C)C(C)C2)C1 (stereo not given)
[b] OCC1(NCCCC2CCc3ccc(OCc4noc(-c5ccc(Cl)cc5)n4)cc32)CCCC1 (stereo not given)
Return label of the item with the larger half-life. Candidates: a , b . Reply briefly: the label of your chosen item.
a
(a: 26 min, b: 12 min)

* * *

// endpoint pKi / system UniProtKB Q12809
Sequence (Q12809 whole entry): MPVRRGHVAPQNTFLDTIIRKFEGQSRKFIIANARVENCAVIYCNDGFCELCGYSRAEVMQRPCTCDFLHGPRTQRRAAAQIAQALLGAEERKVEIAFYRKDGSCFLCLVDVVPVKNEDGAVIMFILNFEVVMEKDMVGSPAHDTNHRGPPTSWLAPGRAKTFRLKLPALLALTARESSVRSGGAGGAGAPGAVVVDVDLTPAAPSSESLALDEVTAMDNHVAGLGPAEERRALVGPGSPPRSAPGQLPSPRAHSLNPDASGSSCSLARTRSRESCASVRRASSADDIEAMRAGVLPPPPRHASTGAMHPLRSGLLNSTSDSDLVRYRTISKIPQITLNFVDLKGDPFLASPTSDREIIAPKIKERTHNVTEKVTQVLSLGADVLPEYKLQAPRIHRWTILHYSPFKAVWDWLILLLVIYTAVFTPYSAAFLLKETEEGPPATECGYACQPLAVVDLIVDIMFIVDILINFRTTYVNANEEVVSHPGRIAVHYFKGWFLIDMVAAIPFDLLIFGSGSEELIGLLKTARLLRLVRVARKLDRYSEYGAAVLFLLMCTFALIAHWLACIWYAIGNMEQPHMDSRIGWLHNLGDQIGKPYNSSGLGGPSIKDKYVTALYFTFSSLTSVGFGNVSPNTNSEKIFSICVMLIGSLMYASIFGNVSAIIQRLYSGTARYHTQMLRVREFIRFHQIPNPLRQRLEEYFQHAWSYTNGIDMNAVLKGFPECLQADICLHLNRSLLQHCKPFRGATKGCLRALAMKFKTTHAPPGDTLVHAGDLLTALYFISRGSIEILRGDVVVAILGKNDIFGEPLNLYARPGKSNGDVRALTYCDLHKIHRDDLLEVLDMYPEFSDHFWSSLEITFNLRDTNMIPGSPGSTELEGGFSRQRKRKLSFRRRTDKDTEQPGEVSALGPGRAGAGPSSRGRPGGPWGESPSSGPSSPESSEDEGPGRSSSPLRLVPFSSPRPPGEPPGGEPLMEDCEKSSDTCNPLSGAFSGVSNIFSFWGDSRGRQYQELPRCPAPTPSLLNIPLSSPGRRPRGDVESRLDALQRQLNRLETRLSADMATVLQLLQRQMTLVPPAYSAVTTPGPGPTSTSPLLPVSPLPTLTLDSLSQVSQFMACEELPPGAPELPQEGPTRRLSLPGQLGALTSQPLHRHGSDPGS
// scale note: pKi = -log10(conc_M); give the bare number

Kindly state the measured pKi obtained for OCC1CCCN(CCCC2CCCc3ccc(OCc4ccc(-c5ccccc5F)cn4)cc32)C1 (stereo not given) with UniProtKB Q12809.
6.39

So what pKi did OCC1CCCN(CCCC2CCCc3ccc(OCc4noc(-c5ccc(Cl)cc5)n4)cc32)C1 (stereo in doubt; 8B) get with UniProtKB Q12809?
6.67

Please provide the recorded pKi for OCC1CCCN(CCCC2CCCc3ccc(OCc4noc(-c5ccc(Cl)cc5)n4)cc32)C1 (stereo in doubt; 8) , tested on UniProtKB Q12809.
6.57

API: value(readout= pKi, system= UniProtKB Q12809, query= CCN(Cc1cccc(OCc2noc(-c3ccccc3F)n2)c1)C1CCN(C2CC(C)C(C)C2)C1 (stereo not given) )
6.65

Record CC(C)N1CCN(C2CCc3ccc(OCc4noc(-c5ccc(Cl)cc5)n4)cc32)CC1 (stereo not given) : what is its pKi with UniProtKB Q12809?
7.01

GET /values?readout=pKi&system=UniProtKB Q12809&item= OCC1CCCN(CCCC2CCCc3ccc(OCc4noc(-c5ccccc5F)n4)cc32)C1 (stereo not given)
5.89

Entry OCC1CCCN(CCCC2CCCc3ccc(OCc4noc(-c5ccc(Cl)cc5)n4)cc32)C1 (stereo in doubt; 8C) , system UniProtKB Q12809: what pKi was measured?
6.66

Value wanted: pKi (UniProtKB Q12809) of entry OCC1CCCN(CCCC2CCCc3ccc(OCc4noc(-c5ccc(Cl)cc5)n4)cc32)C1 (stereo in doubt; 8D)
6.69

Requested read-out pKi, target or system UniProtKB Q12809, entry OCC1(NCCCC2CCc3ccc(OCc4noc(-c5ccc(Cl)cc5)n4)cc32)CCCC1 (stereo not given)
6.28

Notebook entry, UniProtKB Q12809 assay: pKi of OCC1CCCN(CCCC2CCCc3ccc(OCc4noc(-c5ccc(Cl)cc5)n4)cc32)C1 (stereo in doubt; 8A) = ?
6.42

Cited source for all entries: ChEMBL document CHEMBL1139118
